test system: 883617-216-R-J1-PDC complex spheroid viability; assay: Anticancer human tumor 883617-216-R-J1-PDC patient-derived bladder carcinoma cell line growth inhibition [POLQ]; conditions: second compound 0.0316 µM; first compound 10 µM; stronger effect = lower value;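 further: spheroids exposed to compounds for seven days before readout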
// assign yes if viability, T/C falls strictly below 60%, else no (ties count as no)

Molecule: C=CC(=O)N1CCN(c2nc(=O)n(-c3c(C)ccnc3C(C)C)c3nc(-c4c(O)cccc4F)c(F)cc23)C(C)C1 (stereo unspecified) + Nc1ccc(C#CCN(C(=O)Cc2ncc(C(F)(F)F)cc2C(F)(F)F)c2ccc(F)cc2)nn1
Category: no

Molecule: O=C(c1cc(Cc2n[nH]c(=O)c3ccccc23)ccc1F)N1CCN(C(=O)C2CC2)CC1 + Cc1cccc(N(C)C(=O)C2C(O)CCN2c2nc(C)cc(C(F)(F)F)c2C#N)c1
Category: no

Molecule: CC1COCCN1c1cc(C2(S(C)(=N)=O)CC2)nc(-c2ccnc3[nH]ccc23)n1 (stereo unspecified) + COC1C(OC(N)=O)C(O)C(Oc2ccc3c(O)c(NC(=O)c4ccc(O)c(CC=C(C)C)c4)c(=O)oc3c2C)OC1(C)C
Category: yes

Molecule: Nc1ccn(C2OC(CO)C(O)C2(F)F)c(=O)n1 (stereo unspecified) + COC1C(OC(N)=O)C(O)C(Oc2ccc3c(O)c(NC(=O)c4ccc(O)c(CC=C(C)C)c4)c(=O)oc3c2C)OC1(C)C
Category: yes

Molecule: COc1ccc([C@@H](O)c2cc(-c3ncnc4cc(N5CCOCC5)ccc34)c(F)cc2Cl)nn1 + Cc1cccc(N(C)C(=O)C2C(O)CCN2c2nc(C)cc(C(F)(F)F)c2C#N)c1
Category: yes
